# system: Nuclear receptor ROR-gamma (Homo sapiens) (UniProt P51449)
# Sequence (P51449 whole entry, looked up): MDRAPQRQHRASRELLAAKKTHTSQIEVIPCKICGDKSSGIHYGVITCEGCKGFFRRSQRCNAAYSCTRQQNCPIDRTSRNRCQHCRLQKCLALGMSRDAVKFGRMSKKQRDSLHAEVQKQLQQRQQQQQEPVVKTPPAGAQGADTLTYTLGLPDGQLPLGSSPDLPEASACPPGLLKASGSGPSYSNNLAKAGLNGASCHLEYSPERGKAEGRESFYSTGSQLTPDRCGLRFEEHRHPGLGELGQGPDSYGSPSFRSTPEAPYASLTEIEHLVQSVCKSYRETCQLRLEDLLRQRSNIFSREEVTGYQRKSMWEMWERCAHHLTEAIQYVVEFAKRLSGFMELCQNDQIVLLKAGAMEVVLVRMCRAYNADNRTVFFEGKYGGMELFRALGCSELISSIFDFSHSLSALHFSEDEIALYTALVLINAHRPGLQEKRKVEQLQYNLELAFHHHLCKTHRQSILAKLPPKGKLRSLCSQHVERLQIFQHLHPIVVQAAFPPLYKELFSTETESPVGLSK
# experimental.protocol: qHTS assay for small molecule antagonists of the retinoid-related orphan receptor gamma (ROR-gamma) signaling pathway (AID 651802); also: nearly all actives have a fitted effect of over 60% in size
# conditions: ROR-gamma antagonist cell reporter assay; series mostly up to 92.2 µM
Inconclusive results are not listed. The source made the active and inactive calls. Calls follow the shape of the dose curve; as a rule, active = well fitted inhibition curve with a large enough effect; inconclusive = small, poorly fitted or top-dose-only effect; inactive = no such curve, though single readings can be large or run the other way.
Please answer using one outcome listed in 1 (yes) (active), 0 (no) (inactive)

Use the examples below as a reference point.
smi	discrete.label
NC(=NCCCCCCN=C(N)/N=C(\N)Nc1ccc(Cl)cc1)/N=C(\N)Nc1ccc(Cl)cc1	1 (yes)
CC(=O)Oc1ccc(C(c2ccc(OC(C)=O)cc2)c2ccccn2)cc1	0 (no)
C[C@]12CC[C@@H]3c4ccc(O)cc4CC[C@H]3[C@@H]1CC[C@@H]2O	1 (yes)
C=C(CC)C(=O)c1ccc(OCC(=O)O)c(Cl)c1Cl	1 (yes)

Inquiry: # lookup: test call for "Oc1c(I)cc(Cl)c2cccnc12"
Reply text: 1 (yes)
